FYI, the data here is from patent US20110044938A1.

Below is a list of entries, each paired with its recorded IC50 value.
# System: subclones of RKO colon adenocarcinoma cells (RKOp27 or RKOp21) arrested by Ponasterone A
# protocol description: Alamar Blue cell viability assay, cell cycle specific mode of action: cells arrested by ectopic p27Kip1 induced by Ponasterone A versus proliferating cells
# Type: cell-based
# stated conditions: Homo sapiens, RKO p27 induced (arrested) cells, 10 μM Ponasterone A, 72 hours, value = class bound given in Table A, read-out: −logIC50 RKO p27 induced (arrested) (converted)

**Query** What IC50 value was documented for this molecule, COc1cccc(C(C)CC(=O)Nc2sc3c(c2C#N)CCC(COC(=O)NCc2cc(C)on2)C3)c1 (centres unmarked) ?
**Result** ≥ 50.1 µM

**Query** Then what about the molecule COc1cccc(CCC(=O)Nc2sc3c(c2C#N)CCC(COC(=O)NC2CC2)C3)c1 (centres unmarked) ?
**Result** ≥ 100 µM

**Query** Then what about the molecule N#Cc1c(NC(=O)/C=C/c2cccnc2)sc2c1CCC(COC(=O)NCc1ccccc1)C2 (centres unmarked) ?
**Result** ≥ 100 µM

**Query** Then what about the molecule CCOc1ccccc1CCC(=O)Nc1sc2c(c1C#N)CCC(OC(=O)NCc1ccccn1)C2 (centres unmarked) ?
**Result** ≥ 100 µM

**Query** Then what about the molecule Cc1oncc1CNC(=O)OC1CCc2c(sc(NC(=O)/C=C/c3cccnc3)c2C#N)C1 (centres unmarked) ?
**Result** ≥ 100 µM

**Query** Then what about the molecule CC(CC(=O)Nc1sc2c(c1C#N)CCC(OC(=O)NCc1ccncc1)C2)c1ccccc1 (centres unmarked) ?
**Result** ≥ 10 µM

Query molecule follows.
**Query** What IC50 value was documented for this molecule, N#Cc1c(NC(=O)/C=C/c2cccnc2)sc2c1CCC(OC(=O)N1CCC[C@H]1CO)C2 (some centres unmarked) ?
**Result** ≥ 100 µM

* * *

# Test system: subclones of RKO colon adenocarcinoma cells (RKOp27 or RKOp21) arrested by Ponasterone A
# protocol description: Alamar Blue cell viability assay, cell cycle specific mode of action: cells arrested by ectopic p27Kip1 induced by Ponasterone A versus proliferating cells
# Format: cell-based
# stated conditions: Homo sapiens, RKO p27 induced (arrested) cells, 10 μM Ponasterone A, 72 hours, value = class bound given in Table A, read-out: −logIC50 RKO p27 induced (arrested) (converted)
# Method: To determine the cell cycle specific mode of action, subclones of RKO colon adenocarcinoma cells (RKOp27 or RKOp21 as described by Schmidt et al. in Oncogene 19, 2423-2429; 2000) are seeded into 96 well flat bottom plates at a density of 15000 cells per well in a volume of 50 μl per well in DMEM growth medium with 10% FCS containing 10 μM Ponasterone A. 24 hours after seeding the 50 μl each of the compound dilutions in DMEM medium are added into each well of the 96 Well plate. […]
Below is a list of entries, each paired with its recorded IC50 value.

**Query** Lab request: please report IC50 under test system subclones of RKO colon adenocarcinoma cells (RKOp27 or RKOp21) arrested by Ponasterone A for CCOc1ccccc1/C=C/C(=O)Nc1sc2c(c1C#N)CCC(COC(=O)NCCO)C2 (stereo not drawn)
**Result** ≥ 100 µM

More entries:
**Query** Lab request: please report IC50 under test system subclones of RKO colon adenocarcinoma cells (RKOp27 or RKOp21) arrested by Ponasterone A for Cc1nn(C)cc1CNC(=O)OCC1CCc2c(sc(NC(=O)CC(C)c3ccccc3)c2C#N)C1 (stereo not drawn)
**Result** ≥ 10 µM

**Query** Then what about the molecule N#Cc1c(NC(=O)/C=C/c2cccnc2)sc2c1CCC(OC(=O)N[C@H]1CC[C@H](O)CC1)C2 (stereo partly drawn) ?
**Result** ≥ 100 µM

* * *

# Tested on: subclones of RKO colon adenocarcinoma cells (RKOp27 or RKOp21) arrested by Ponasterone A
# protocol description: Alamar Blue cell viability assay, cell cycle specific mode of action: cells arrested by ectopic p27Kip1 induced by Ponasterone A versus proliferating cells
# Format: cell-based
# stated conditions: Homo sapiens, RKO p27 induced (arrested) cells, 10 μM Ponasterone A, 72 hours, value = class bound given in Table A, read-out: −logIC50 RKO p27 induced (arrested) (converted)
# Experimental: To determine the cell cycle specific mode of action, subclones of RKO colon adenocarcinoma cells (RKOp27 or RKOp21 as described by Schmidt et al. in Oncogene 19, 2423-2429; 2000) are seeded into 96 well flat bottom plates at a density of 15000 cells per well in a volume of 50 μl per well in DMEM growth medium with 10% FCS containing 10 μM Ponasterone A. 24 hours after seeding the 50 μl each of the compound dilutions in DMEM medium are added into each well of the 96 Well plate. […]
Below is a list of entries, each paired with its recorded IC50 value.

Sample answers from the record:
**Query** What IC50 value was documented for this compound, CCOc1ccccc1CCC(=O)Nc1sc2c(c1C#N)CCC(COC(=O)NCCc1cccnc1)C2 (stereo not drawn) ?
**Result** ≥ 100 µM

**Query** Then what about the compound COc1cccc(C(C)CC(=O)Nc2sc3c(c2C#N)CCC(OC(=O)N2CCOCC2)C3)c1 (stereo not drawn) ?
**Result** ≥ 50.1 µM

More entries:
**Query** What IC50 value was documented for this compound, CCN(CC)C(=O)OCC1CCc2c(sc(NC(=O)/C=C/c3cccnc3)c2C#N)C1 (stereo not drawn) ?
**Result** ≥ 100 µM

**Query** Then what about the compound N#Cc1c(NC(=O)/C=C/c2cccnc2)sc2c1CCC(OC(=O)N1CCCC(O)C1)C2 (stereo not drawn) ?
**Result** ≥ 100 µM

**Query** Then what about the compound CCOc1ccccc1CCC(=O)Nc1sc2c(c1C#N)CCC(OC(=O)N1CCCC1)C2 (stereo not drawn) ?
**Result** ≥ 100 µM

**Query** Then what about the compound CCOc1ccccc1CCC(=O)Nc1sc2c(c1C#N)CCC(OC(=O)NCc1ccnn1C)C2 (stereo not drawn) ?
**Result** ≥ 50.1 µM

**Query** Then what about the compound CC(CC(=O)Nc1sc2c(c1C#N)CCC(COC(=O)NCC1CCCO1)C2)c1ccccc1 (stereo not drawn) ?
**Result** ≥ 50.1 µM

**Query** Then what about the compound N#Cc1c(NC(=O)/C=C/c2cccnc2)sc2c1CCC(OC(=O)NC1CC1)C2 (stereo not drawn) ?
**Result** ≥ 100 µM

**Query** Then what about the compound N#Cc1c(NC(=O)/C=C/c2cccnc2)sc2c1CC[C@@H](COC(=O)N1CCC[C@H](O)C1)C2 [Example 87d] ?
**Result** ≥ 100 µM

**Query** Then what about the compound CC(CC(=O)Nc1sc2c(c1C#N)CCC(OC(=O)NCc1cccn1C)C2)c1ccccc1 (stereo not drawn) ?
**Result** ≥ 50.1 µM

**Query** Then what about the compound CCOc1ccccc1CCC(=O)Nc1sc2c(c1C#N)CCC(OC(=O)NCCc1cccnc1)C2 (stereo not drawn) ?
**Result** ≥ 100 µM

**Query** Then what about the compound N#Cc1c(NC(=O)/C=C/c2cccnc2)sc2c1CCC(OC(=O)NC1CCOCC1)C2 (stereo not drawn) ?
**Result** ≥ 100 µM

**Query** Then what about the compound CCn1nccc1CNC(=O)OCC1CCc2c(sc(NC(=O)CC(C)c3ccccc3)c2C#N)C1 (stereo not drawn) ?
**Result** ≥ 50.1 µM

**Query** Then what about the compound N#Cc1c(NC(=O)/C=C/c2cccnc2)sc2c1CCC(OC(=O)NCCn1ccnc1)C2 (stereo not drawn) ?
**Result** ≥ 100 µM

**Query** Then what about the compound CCNC(=O)OC[C@@H]1CCc2c(sc(NC(=O)/C=C/c3cccnc3)c2C#N)C1 ?
**Result** ≥ 100 µM

**Query** Then what about the compound CC(CC(=O)Nc1sc2c(c1C#N)CCC(OC(=O)NCc1ccccn1)C2)c1ccccc1 (stereo not drawn) ?
**Result** ≥ 10 µM

**Query** Then what about the compound COc1cccc(CCC(=O)Nc2sc3c(c2C#N)CCC(OC(=O)OCc2cncs2)C3)c1 (stereo not drawn) ?
**Result** ≥ 50.1 µM

**Query** Then what about the compound CCOc1ccccc1CCC(=O)Nc1sc2c(c1C#N)CCC(COC(=O)NCc1cnoc1C)C2 (stereo not drawn) ?
**Result** ≥ 100 µM

* * *

# Tested on: subclones of RKO colon adenocarcinoma cells (RKOp27 or RKOp21) arrested by Ponasterone A
# protocol description: Alamar Blue cell viability assay, cell cycle specific mode of action: cells arrested by ectopic p27Kip1 induced by Ponasterone A versus proliferating cells
# Type: cell-based
# stated conditions: Homo sapiens, RKO p27 induced (arrested) cells, 10 μM Ponasterone A, 72 hours, value = class bound given in Table A, read-out: −logIC50 RKO p27 induced (arrested) (converted)
Below is a list of entries, each paired with its recorded IC50 value.

**Query** What IC50 value was documented for this molecule, COc1cccc(CCC(=O)Nc2sc3c(c2C#N)CCC(OC(=O)NC2CC2)C3)c1 (stereo not drawn) ?
**Result** ≥ 100 µM

**Query** Then what about the molecule COC(=O)OC1CCc2c(sc(NC(=O)CCc3cccnc3)c2C#N)C1 (stereo not drawn) ?
**Result** ≥ 100 µM

**Query** Then what about the molecule COc1cccc(C(C)CC(=O)Nc2sc3c(c2C#N)CCC(COC(=O)NCC2CCOCC2)C3)c1 (stereo not drawn) ?
**Result** ≥ 50.1 µM

**Query** Then what about the molecule COCCOC(=O)OC1CCc2c(sc(NC(=O)/C=C/c3cccnc3)c2C#N)C1 (stereo not drawn) ?
**Result** ≥ 100 µM

**Query** Then what about the molecule CCOC(=O)OCC1CCc2c(sc(NC(=O)CCc3ccccc3OCC)c2C#N)C1 (stereo not drawn) ?
**Result** ≥ 100 µM

Query molecule follows.
**Query** What IC50 value was documented for this molecule, CCNC(=O)OCC1CCc2c(sc(NC(=O)CCc3cccnc3)c2C#N)C1 (stereo not drawn) ?
**Result** ≥ 100 µM
